Assay read-out pIC50 on Cyclin-dependent kinase 2 (Homo sapiens, UniProt P24941); records merged from the literature.
// pIC50: -log10(molar conc.)

molecule=N#C/C=C(/c1ccc2nc(N)c(C(=O)c3c(F)cccc3F)n2c1)c1c(F)cccc1F observed_property=pIC50 value_measured=6.80
molecule=Nc1ncc(-c2ccccc2)cc1-c1nc2ccccc2[nH]1 observed_property=pIC50 value_measured=5.89
molecule="COc1ccc(-c2nc3c(NCCCNC(=O)C4CC(O)C4)c(Br)cnc3[nH]2)cc1 (centres undefined)" observed_property=pIC50 value_measured=6.46
molecule=CC(C)(C)c1cc2c(N/N=C\c3cccs3)ncnc2s1 observed_property=pIC50 value_measured=5.75
molecule=N[C@H](COc1cncc(-c2ccc3[nH]nc(NC(=O)c4ccccc4)c3c2)c1)c1ccccc1 observed_property=pIC50 value_measured=6.92
molecule="Cc1ccc(F)c(Nc2ccnc(Nc3ccc(OCC(O)CN(C)C)cc3)n2)c1 (centres undefined)" observed_property=pIC50 value_measured=5.70
molecule="CC(C)(C)c1cnc(CSc2cnc(NC(=O)C3CCCNC3)s2)o1 (centres undefined)" observed_property=pIC50 value_measured=7.70
molecule=N[C@H](COc1cncc(-c2ccc3[nH]nc(NC(=O)c4ccccc4)c3c2)c1)Cc1ccccc1 observed_property=pIC50 value_measured=7.01
molecule=CCn1cnc2c(NCc3nc4ccc(F)c(F)c4[nH]3)nc(N3CCCC[C@H]3CCO)nc21 observed_property=pIC50 value_measured=6.49
molecule=CN1CCN(Cc2ccc(-c3cnc4[nH]cc(-c5cnc6[nH]ccc6c5)c4c3)cc2)CC1 observed_property=pIC50 value_measured=6.14

(Q) Find the measured pIC50 of "O=C(Cc1ccccc1Cl)Nc1n[nH]c2ccc(N3CCCS3(=O)=O)cc12" with Cyclin-dependent kinase 2 (Homo sapiens, UniProt P24941) as test system.
(A) 7.62

(Q) Fill in pIC50 for "Nc1nccc(-n2ccc3ccncc32)n1" tested with Cyclin-dependent kinase 2 (Homo sapiens, UniProt P24941).
(A) 4.35

(Q) Give measured pIC50 for "N=C1NC(=O)/C(=C/c2ccc(-c3ccc(C(N)=O)cc3)o2)S1" (Cyclin-dependent kinase 2 (Homo sapiens, UniProt P24941)).
(A) 5.03

(Q) Fill in pIC50 for "CCCOc1ccc2c(-c3ccnc(Nc4cccc(C(F)(F)F)c4)n3)cnn2n1" tested with Cyclin-dependent kinase 2 (Homo sapiens, UniProt P24941).
(A) 5.90

(Q) # return pIC50 of "CN(C)S(=O)(=O)c1ccc(Nc2ccc(C(=O)c3c(F)cccc3F)c(N)n2)cc1" (system: Cyclin-dependent kinase 2 (Homo sapiens, UniProt P24941))
(A) 6.30

(Q) Report value: pIC50, system: Cyclin-dependent kinase 2 (Homo sapiens, UniProt P24941), molecule: "NC(=O)c1ccc(Nc2nccc(-c3cnn4ncccc34)n2)cc1"
(A) 7.80

(Q) Given "COc1ccc(NC(=S)NC(=O)c2cn(-c3ccccc3)nc2-c2ccccc2)cc1" , report its pIC50 on Cyclin-dependent kinase 2 (Homo sapiens, UniProt P24941).
(A) 7.25

(Q) Send back Cyclin-dependent kinase 2 (Homo sapiens, UniProt P24941) pIC50 of "Nc1nc2ccc(C(=O)c3c(Cl)cccc3Cl)cn2c1C(=O)c1c(F)cc(O)cc1F" only.
(A) 7.28

(Q) Supply pIC50 measured with Cyclin-dependent kinase 2 (Homo sapiens, UniProt P24941) for "CCCc1c(N[C@H]2CC[C@H](N)CC2)nc2ccnn2c1Nc1ccc(F)c(Cl)c1" .
(A) 5.68

(Q) Output reported pIC50 of the molecule "O=C(Cc1ccc(B2C=CC=CN2)cc1)Nc1cc(C2CC2)[nH]n1" on Cyclin-dependent kinase 2 (Homo sapiens, UniProt P24941).
(A) 7.06

(Q) Give the observed pIC50 of O=C(NC(c1ccc(Cl)c(Cl)c1)C1CCCNC1)c1ccc2cnccc2c1 (centres undefined) for Cyclin-dependent kinase 2 (Homo sapiens, UniProt P24941).
(A) 4.68

(Q) Give the observed pIC50 of "C=CC(=O)Nc1ccc(C(=O)Nc2n[nH]c3ccc(-c4cncc(NC[C@H](O)c5ccccc5)c4)cc23)cc1" for Cyclin-dependent kinase 2 (Homo sapiens, UniProt P24941).
(A) 6.04
